System: HCC70;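 further: cell viability assay measuring how strongly the compound suppresses proliferation of HCC70 cells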
Assay: cells
Format: functional, cell-based
Settings: Homo sapiens
Description: SANGER: Inhibition of human HCC70 cell growth in a cell viability assay.
Catalogue of IC50 values

# molecule, IC50
rows = [
    ("N#C/C(=C1/Nc2ccccc2S1)c1ccnc(NCCc2cccnc2)n1", "> 8 µM"),
    ("C/C(O)=C(\\C#N)C(=O)Nc1cc(Br)ccc1Br", "> 16 µM"),
    ("C[C@]12O[C@H](C[C@]1(O)CO)n1c3ccccc3c3c4c(c5c6ccccc6n2c5c31)CNC4=O [LESTAURTINIB]", "> 2 µM"),
]

---

Test system: S-117
Assay: cells
Format: functional, cell-based
Settings: Homo sapiens
Description: SANGER: Inhibition of human S-117 cell growth in a cell viability assay.
pIC50: −log10 of the molar value.
Parameter pIC50: see the listing below.

# compound, targetOrTestSystem, boundOperator, pIC50
measured = [
    ("CC[C@@]1(O)C(=O)OCc2c1cc1n(c2=O)Cc2cc3ccccc3nc2-1", "S-117", "=", 7.11),
    ("Fc1cc(-c2cc[nH]/c(=N/c3ccc(-n4cnc(N5CCOCC5)n4)cc3)n2)cc(N2CCOCC2)c1", "S-117", "<", 5.29),
    ("NC(=O)c1ncn([C@@H]2O[C@H](COP(=O)(O)O)[C@@H](O)[C@H]2O)c1N", "S-117", "<", 2.70),
    ("CC[C@]1(O)C[C@@H]2CN(CCc3c([nH]c4ccccc34)[C@@](C(=O)OC)(c3cc4c(cc3OC)N(C)[C@H]3[C@@](O)(C(=O)OC)[C@H](OC(C)=O)[C@]5(CC)C=CCN6CC[C@]43[C@@H]65)C2)C1", "S-117", "=", 8.25),
    ("C/C(O)=C(\\C#N)C(=O)Nc1cc(Br)ccc1Br", "S-117", "<", 4.80),
    ("CC(O)(CS(=O)(=O)c1ccc(F)cc1)C(=O)Nc1ccc(C#N)c(C(F)(F)F)c1 (stereo not given) [BICALUTAMIDE]", "S-117", "<", 5.99),
    ("Cn1cc(/C=C2\\C(=O)Nc3cccnc32)c2ccccc21", "S-117", "<", 5.70),
    ("C[C@]1(c2nc3c(C(N)=O)cccc3[nH]2)CCCN1", "S-117", "<", 5.30),
    ("Cn1c(=O)n(-c2ccc(C(C)(C)C#N)cc2)c2c3cc(-c4cnc5ccccc5c4)ccc3ncc21", "S-117", "=", 7.12),
    ("CC(C)=CC[C@@H](O)C1=CC(=O)c2c(O)ccc(O)c2C1=O", "S-117", "=", 6.41),
]

---

A collection of compounds and their measured IC50
Test system: KOSC-2;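 further: growth inhibition of KOSC-2 cells, read out by a cell viability assay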
Assay: cells
Assay type: functional, cell-based
Settings: Homo sapiens
Description: SANGER: Inhibition of human KOSC-2 cell growth in a cell viability assay.
recordedMetric: IC50

# chemicalString, targetOrTestSystem, testResult
rows = [
    ("C[C@]1(c2nc3c(C(N)=O)cccc3[nH]2)CCCN1", "KOSC-2", "> 5 µM"),
    ("O=c1cc(N2CCOCC2)oc2c(-c3cccc4c3sc3ccccc34)cccc12", "KOSC-2", "> 2 µM"),
    ("CCCS(=O)(=O)Nc1ccc(F)c(C(=O)c2c[nH]c3ncc(Cl)cc23)c1F", "KOSC-2", "> 10 µM"),
]

---

System: LS-411N
Assay: cells
Type: functional, cell-based
Settings: Homo sapiens
pIC50: −log10 of the molar value.
# reported pIC50; entries follow

# molecule, pIC50
rows = [
    ("Cc1[nH]c(/C=C2\\C(=O)Nc3ccc(S(=O)(=O)Cc4c(Cl)cccc4Cl)cc32)c(C)c1C(=O)N1CCC[C@@H]1CN1CCCC1 [PHA-665752]", "< 5.70"),
    ("NC(=O)c1ncn([C@@H]2O[C@H](COP(=O)(O)O)[C@@H](O)[C@H]2O)c1N", "< 2.70"),
    ("COc1cc(Nc2c(C#N)cnc3cc(OCCCN4CCN(C)CC4)c(OC)cc23)c(Cl)cc1Cl [BOSUTINIB]", "< 5.70"),
]

---

Below is a list of entries, each paired with its recorded pIC50 value.
Test system: A673;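 further: growth inhibition of human A673 cells, read out through a cell viability assay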
Experiment: cells
Assay type: functional, cell-based
Conditions: Homo sapiens
Description: SANGER: Inhibition of human A673 cell growth in a cell viability assay.
pIC50: −log10 of the molar value.

# chemicalString, pIC50
measured = [
    ("O=c1[nH]c2ccccc2n1C1CCN(Cc2ccc(-c3nc4cc5[nH]cnc5cc4nc3-c3ccccc3)cc2)CC1", "< 5.59"),
    ("N#C/C(=C1/Nc2ccccc2S1)c1ccnc(NCCc2cccnc2)n1", "< 5.10"),
    ("O=c1cc(N2CCOCC2)oc2c(-c3cccc4c3sc3ccccc34)cccc12", "< 5.70"),
]

---

Tested on: FTC-133
Test: cells
Assay type: functional, cell-based
Details: Homo sapiens
pIC50: −log10 of the molar value.
recordedMetric: pIC50

# compound, recordedMetric, testResult
rows = [
    ("CCNC(=O)c1noc(-c2cc(C(C)C)c(O)cc2O)c1-c1ccc(CN2CCOCC2)cc1 [LUMINESPIB]", "pIC50", "< 6.59"),
    ("O=c1cc(N2CCOCC2)oc2c(-c3cccc4c3sc3ccccc34)cccc12", "pIC50", "< 5.70"),
    ("O=c1[nH]c2ccccc2n1C1CCN(Cc2ccc(-c3nc4cc5[nH]cnc5cc4nc3-c3ccccc3)cc2)CC1", "pIC50", "< 5.59"),
]

---

Tested on: HCC2157;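 further: growth inhibition of the cancer cell line, read out as cell viability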
Assay: cells
Type: functional, cell-based
Details: Homo sapiens
Description: SANGER: Inhibition of human HCC2157 cell growth in a cell viability assay.
Entries and their IC50
recordedMetric: IC50

# chemicalString, targetOrTestSystem, recordedMetric, testResult
data = [
    ("N#C/C(=C1/Nc2ccccc2S1)c1ccnc(NCCc2cccnc2)n1", "HCC2157", "IC50", "> 8 µM"),
    ("CC(=O)c1c(C)c2cnc(Nc3ccc(N4CCNCC4)cn3)nc2n(C2CCCC2)c1=O", "HCC2157", "IC50", "> 4 µM"),
    ("Cc1[nH]c(/C=C2\\C(=O)Nc3ccc(S(=O)(=O)Cc4c(Cl)cccc4Cl)cc32)c(C)c1C(=O)N1CCC[C@@H]1CN1CCCC1", "HCC2157", "IC50", "> 2 µM"),
]

---

Test system: EW-18
Experiment: cells
Assay type: functional, cell-based
Conditions: Homo sapiens
Description: SANGER: Inhibition of human EW-18 cell growth in a cell viability assay.
pIC50: −log10 of the molar value.

# chemicalString, pIC50
rows = [
    ("NC(=O)c1ncn([C@@H]2O[C@H](COP(=O)(O)O)[C@@H](O)[C@H]2O)c1N", "< 2.70"),
    ("CC[C@]1(O)C[C@@H]2CN(CCc3c([nH]c4ccccc34)[C@@](C(=O)OC)(c3cc4c(cc3OC)N(C)[C@H]3[C@@](O)(C(=O)OC)[C@H](OC(C)=O)[C@]5(CC)C=CCN6CC[C@]43[C@@H]65)C2)C1", "< 7.00"),
    ("Cc1[nH]c(/C=C2\\C(=O)Nc3ccc(S(=O)(=O)Cc4c(Cl)cccc4Cl)cc32)c(C)c1C(=O)N1CCC[C@@H]1CN1CCCC1", "< 5.70"),
    ("C/C(O)=C(\\C#N)C(=O)Nc1cc(Br)ccc1Br", "< 4.80"),
    ("Cn1cc(/C=C2\\C(=O)Nc3cccnc32)c2ccccc21", "< 5.70"),
    ("C/C=C(/C)C(=O)O[C@H]1C(C)=C2[C@H]([C@@H]1OC(=O)CCCCCCC)[C@@](C)(OC(C)=O)C[C@H](OC(=O)CCC)[C@@]1(O)[C@H]2OC(=O)[C@@]1(C)O", 8.68),
    ("O=c1[nH]c2ccccc2n1C1CCN(Cc2ccc(-c3nc4cc5[nH]cnc5cc4nc3-c3ccccc3)cc2)CC1", "< 5.59"),
]

---

We begin with a simple list: items and their reported IC50.
System: BPH-1;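 further: cell viability assay measuring growth inhibition of human BPH-1 cells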
Test: cells
Assay type: functional, cell-based
Settings: Homo sapiens
Description: SANGER: Inhibition of human BPH-1 cell growth in a cell viability assay.

# compound, IC50
records = [
    ("CC(O)(CS(=O)(=O)c1ccc(F)cc1)C(=O)Nc1ccc(C#N)c(C(F)(F)F)c1 (stereo not drawn) [BICALUTAMIDE]", "> 1.02 µM"),
    ("C/C(O)=C(\\C#N)C(=O)Nc1cc(Br)ccc1Br", "> 16 µM"),
    ("N#C/C(=C1/Nc2ccccc2S1)c1ccnc(NCCc2cccnc2)n1", "> 8 µM"),
]

---

Attribute: pIC50
System: NCI-H358;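 further: growth inhibition of NCI-H358 human cells, read out with a cell viability assay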
Assay: cells
Type: functional, cell-based
Conditions: Homo sapiens
Description: SANGER: Inhibition of human NCI-H358 cell growth in a cell viability assay.
pIC50: −log10 of the molar value.
recordedMetric: pIC50

# compound, targetOrTestSystem, testResult
rows = [
    ("CC(O)(CS(=O)(=O)c1ccc(F)cc1)C(=O)Nc1ccc(C#N)c(C(F)(F)F)c1 (centres undefined) [BICALUTAMIDE]", "NCI-H358", "< 5.99"),
    ("C[C@]1(c2nc3c(C(N)=O)cccc3[nH]2)CCCN1", "NCI-H358", "< 5.30"),
    ("C/C=C(/C)C(=O)O[C@H]1C(C)=C2[C@H]([C@@H]1OC(=O)CCCCCCC)[C@@](C)(OC(C)=O)C[C@H](OC(=O)CCC)[C@@]1(O)[C@H]2OC(=O)[C@@]1(C)O", "NCI-H358", "> 8.70"),
    ("Cn1cc(/C=C2\\C(=O)Nc3cccnc32)c2ccccc21", "NCI-H358", "< 5.70"),
]
